Biological target: SIRT1 (Homo sapiens, UniProt Q96EB6)
Test: Mass spectrometry based assay of SIRT1 activity (deacetylation of a p53-based acetylated peptide)
Format: biochemical
Details: 10 nM SIRT1, 0.5 μM peptide substrate, 120 μM βNAD+, 25 minutes at 25° C.
Description: A mass spectrometry based assay was used to identify modulators of SIRT1 activity. The mass spectrometry based assay utilizes a peptide having 20 amino acid residues as follows: Ac-EE-K(biotin)-GQSTSSHSK(Ac)NleSTEG-K(5TMR)-EE-NH2 (SEQ ID NO: 1) wherein K(Ac) is an acetylated lysine residue and Nle is a norleucine. The peptide is labeled with the fluorophore 5TMR (excitation 540 nm/emission 580 nm) at the C-terminus. The sequence of the peptide substrate is based on p53 with several modifications. […]
measuredMetric: EC1.5 (concentration of test compound that results in 150% activation of SIRT1)

INSERT INTO measurements (molecule, observedmeasurement) VALUES
  ('O=C(Nc1cnccn1)C1CCCc2ccc(-c3cccc(C(F)(F)F)c3)nc21 (centres unmarked)', 'B (EC1.5 10-25 μM)'),
  ('O=C(NC1CCCc2ccc(-c3cccc(C(F)(F)F)c3)nc21)c1cscn1 (centres unmarked)', 'C (EC1.5>25 μM)'),
  ('CC(NC(=O)c1cccc(CN2CCCC2)n1)c1cccc(-c2cccc(C(F)(F)F)c2)n1 (centres unmarked)', 'C (EC1.5>25 μM)'),
  ('CC(C)c1cccc(-c2cccc(C(C)NC(=O)c3cscn3)n2)c1 (centres unmarked)', 'C (EC1.5>25 μM)'),
  ('CC(NC(=O)c1cccnc1)c1cccc(-c2cccc(OC(F)(F)F)c2)n1 (centres unmarked)', 'C (EC1.5>25 μM)'),
  ('O=C(NC1CCCc2ccc(-c3cccc(C(F)(F)F)c3)nc21)c1ccc(CN2CCOCC2)nc1 (centres unmarked)', 'C (EC1.5>25 μM)'),
  ('O=C(NC1CCCc2ccc(-c3cccc(OC(F)(F)F)c3)nc21)c1cnccn1 (centres unmarked)', 'B (EC1.5 10-25 μM)'),
  ('O=C(NC1CCCc2ccc(-c3ccccc3C(F)(F)F)nc21)c1cnccn1 (centres unmarked)', 'C (EC1.5>25 μM)');

----------
Molecular target: SIRT1 (Homo sapiens)
Sequence (Q96EB6 1-747): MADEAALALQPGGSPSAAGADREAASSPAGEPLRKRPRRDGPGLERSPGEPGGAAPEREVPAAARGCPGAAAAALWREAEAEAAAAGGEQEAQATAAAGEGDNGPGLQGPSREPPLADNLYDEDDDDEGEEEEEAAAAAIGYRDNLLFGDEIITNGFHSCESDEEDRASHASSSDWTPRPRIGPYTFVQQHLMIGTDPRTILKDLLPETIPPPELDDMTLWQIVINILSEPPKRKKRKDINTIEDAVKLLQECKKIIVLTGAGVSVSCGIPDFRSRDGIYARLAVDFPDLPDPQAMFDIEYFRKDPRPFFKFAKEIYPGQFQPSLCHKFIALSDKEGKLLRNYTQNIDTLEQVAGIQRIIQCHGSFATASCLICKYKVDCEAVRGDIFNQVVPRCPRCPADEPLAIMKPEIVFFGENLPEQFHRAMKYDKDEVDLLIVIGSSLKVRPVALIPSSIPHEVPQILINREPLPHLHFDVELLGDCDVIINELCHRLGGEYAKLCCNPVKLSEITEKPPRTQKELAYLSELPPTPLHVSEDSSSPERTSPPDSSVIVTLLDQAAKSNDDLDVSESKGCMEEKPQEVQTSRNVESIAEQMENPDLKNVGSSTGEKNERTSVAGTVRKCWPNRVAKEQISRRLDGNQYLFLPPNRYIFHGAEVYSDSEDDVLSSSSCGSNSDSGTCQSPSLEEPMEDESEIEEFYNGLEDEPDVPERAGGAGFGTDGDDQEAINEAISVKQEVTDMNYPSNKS
Test: Mass spectrometry based assay of SIRT1 activity (deacetylation of a p53-based acetylated peptide)
Assay type: biochemical
Conditions: 10 nM SIRT1, 0.5 μM peptide substrate, 120 μM βNAD+, 25 minutes at 25° C.
measuredMetric: EC1.5 (concentration of test compound that results in 150% activation of SIRT1)

INSERT INTO measurements (molecule, observedmeasurement) VALUES
  ('O=C(NC1CCOCC1)C1CCCc2ccc(-c3cccc(C(F)(F)F)c3)nc21 (stereo not drawn)', 'C (EC1.5>25 μM)'),
  ('Cc1cc(-c2ccc3c(n2)C(NC(=O)c2cnccn2)CCC3)ccn1 (stereo not drawn)', 'C (EC1.5>25 μM)');
